Catalogue of refractive index values
# Experimental Details: refractive index (Na D-line) (dimensionless)
# Settings: 318.15 K; 101.33 kPa; Liquid; Standard Abbe refractometry
Simply state the number, no unit and no words.

Worked cases, answers included:
C1COCCO1 [1,4-dioxane] :: 1.40993
CCCCCCn1cc[n+](C)c1.F[B-](F)(F)F [1-hexyl-3-methylimidazolium tetrafluoroborate] :: 1.42612
C1CCOC1 [tetrahydrofuran] :: 1.39349

Then this compound:
Field request: refractive index | item: CCCCCCCC[n+]1ccn(C)c1.F[B-](F)(F)F [1-methyl-3-octylimidazolium tetrafluoroborate] 1.42684

----------
# Settings: 298.15 K; 101.33 kPa; Liquid; Sing-around technique in a fixed-path interferometer
Catalogue of speed of sound values
// note: answer is a bare numeric in m/s

Worked cases, answers included:
C1CCOC1 [tetrahydrofuran] :: 1280.5
CCCCCCn1cc[n+](C)c1.F[B-](F)(F)F [1-hexyl-3-methylimidazolium tetrafluoroborate] :: 1496.7
C1COCCO1 :: 1345

Then this compound:
Field request: speed of sound | item: CCCCCCCC[n+]1ccn(C)c1.F[B-](F)(F)F [1-methyl-3-octylimidazolium tetrafluoroborate] 1481.1

----------
Catalogue of mass density values
# Settings: 303.15 K; 101.33 kPa; Liquid; Vibrating tube method
// note: answer is a bare numeric in kg/m3

CCCCCCCC[n+]1ccn(C)c1.F[B-](F)(F)F [1-methyl-3-octylimidazolium tetrafluoroborate] :: 1094.07

Field request: mass density | item: C1CCOC1 [tetrahydrofuran] 877.7

Field request: mass density | item: `C1COCCO1` 1022.19

Field request: mass density | item: CCCCCCn1cc[n+](C)c1.F[B-](F)(F)F [1-hexyl-3-methylimidazolium tetrafluoroborate] 1141.47

----------
# Experimental Details: refractive index (Na D-line) (dimensionless)
# Settings: 303.15 K; 101.33 kPa; Liquid; Standard Abbe refractometry
± gives the expanded uncertainty stated by the source.
Catalogue of refractive index values

Field request: refractive index | item: CCCCCCn1cc[n+](C)c1.F[B-](F)(F)F [1-hexyl-3-methylimidazolium tetrafluoroborate] 1.43029 ± 0.00053

Field request: refractive index | item: `C1COCCO1` 1.41725 ± 0.00037

Field request: refractive index | item: C1CCOC1 [tetrahydrofuran] 1.40157 ± 0.00039

Field request: refractive index | item: CCCCCCCC[n+]1ccn(C)c1.F[B-](F)(F)F [1-methyl-3-octylimidazolium tetrafluoroborate] 1.43192 ± 0.0017

----------
# Settings: 313.15 K; 101.33 kPa; Liquid; Vibrating tube method
Measured Attribute: mass density (kg/m3)
// note: answer is a bare numeric in kg/m3

Worked cases, answers included:
C1CCOC1 [tetrahydrofuran] :: 866.58
CCCCCCn1cc[n+](C)c1.F[B-](F)(F)F [1-hexyl-3-methylimidazolium tetrafluoroborate] :: 1134.09
CCCCCCCC[n+]1ccn(C)c1.F[B-](F)(F)F [1-methyl-3-octylimidazolium tetrafluoroborate] :: 1087.41

Then this molecule:
Field request: mass density | item: `C1COCCO1` 1010.83

----------
Catalogue of speed of sound values
# Settings: 318.15 K; 101.33 kPa; Liquid; Sing-around technique in a fixed-path interferometer
// note: answer is a bare numeric in m/s

Worked cases, answers included:
CCCCCCn1cc[n+](C)c1.F[B-](F)(F)F [1-hexyl-3-methylimidazolium tetrafluoroborate] :: 1447.7
CCCCCCCC[n+]1ccn(C)c1.F[B-](F)(F)F [1-methyl-3-octylimidazolium tetrafluoroborate] :: 1428.2
C1CCOC1 [tetrahydrofuran] :: 1185.2

Then this molecule:
Field request: speed of sound | item: `C1COCCO1` 1257.8

FYI, the data here is from the NIST ThermoML archive (doi:10.1016/j.jct.2013.11.027).
